System: Staphylococcus aureus A5177
Below: a set of entries, each annotated with reported MIC.
Dear colleague, please return just the value in µg/mL, with no unit written.

// query Find the recorded MIC belonging to CC[C@H]1OC(=O)[C@H](C)[C@@H](O[C@H]2C[C@@](C)(OC)C[C@H](C)O2)[C@H](C)[C@@H](O[C@@H]2O[C@H](C)C[C@H](N(C)CC)[C@H]2O)[C@@]2(C)C[C@H](C)C(O2)[C@H](C)[C@@H](O)[C@]1(C)O and report it.
// result 100

Continuing:
// query Find the recorded MIC belonging to CC[C@H]1OC(=O)[C@H](C)[C@@H](O[C@H]2C[C@@](C)(OC)[C@@H](O)[C@H](C)O2)[C@H](C)[C@@H](O[C@@H]2O[C@H](C)C[C@H](N(C)C)[C@H]2O)[C@](C)(O)C[C@@H](C)C(=O)[C@H](C)[C@@H](O)[C@]1(C)O and report it.
// result 1.56

// query Find the recorded MIC belonging to CC[C@H]1OC(=O)[C@H](C)[C@@H](O[C@H]2C[C@@](C)(OC)C[C@H](C)O2)[C@H](C)[C@@H](O[C@@H]2O[C@H](C)C[C@H](N(C)CC)[C@H]2O)[C@@]2(C)CC(C)=C(O2)[C@H](C)[C@@H](O)[C@H]1C and report it.
// result 100

----------
System: Staphylococcus aureus NCTC 10649
Below: a set of entries, each annotated with reported MIC.
Dear colleague, please return just the value in µg/mL, with no unit written.

Field: example entries. Status: answers known.
// query What value of MIC on Staphylococcus aureus NCTC 10649 does CC[C@H]1OC(=O)[C@H](C)[C@@H](O[C@H]2C[C@@](C)(OC)[C@@H](O)[C@H](C)O2)[C@H](C)[C@@H](O[C@@H]2O[C@H](C)C[C@H](N(C)C)[C@H]2O)[C@](C)(O)C[C@@H](C)C(=O)[C@H](C)[C@@H](O)[C@]1(C)O have?
// result 0.2

// query What value of MIC on Staphylococcus aureus NCTC 10649 does CC[C@H]1OC(=O)[C@H](C)[C@@H](O[C@H]2C[C@@](C)(OC)C[C@H](C)O2)[C@H](C)[C@@H](O[C@@H]2O[C@H](C)C[C@H](N(C)CC)[C@H]2O)[C@@]2(C)CC(C)=C(O2)[C@H](C)[C@@H](O)[C@H]1C have?
// result 100

Moving on to the next compound.
// query What value of MIC on Staphylococcus aureus NCTC 10649 does CC[C@H]1OC(=O)[C@H](C)[C@@H](O[C@H]2C[C@@](C)(OC)C[C@H](C)O2)[C@H](C)[C@@H](O[C@@H]2O[C@H](C)C[C@H](N(C)CC)[C@H]2O)[C@@]2(C)C[C@H](C)C(O2)[C@H](C)[C@@H](O)[C@]1(C)O have?
// result 100

----------
Test system: Escherichia coli DC-2
ENDPOINT: MIC

Field: example entries. Status: answers known.
// query What value of MIC on Escherichia coli DC-2 does CC[C@H]1OC(=O)[C@H](C)[C@@H](O[C@H]2C[C@@](C)(OC)C[C@H](C)O2)[C@H](C)[C@@H](O[C@@H]2O[C@H](C)C[C@H](N(C)CC)[C@H]2O)[C@@]2(C)C[C@H](C)C(O2)[C@H](C)[C@@H](O)[C@]1(C)O have?
// result > 100 µg/mL

// query What value of MIC on Escherichia coli DC-2 does CC[C@H]1OC(=O)[C@H](C)[C@@H](O[C@H]2C[C@@](C)(OC)C[C@H](C)O2)[C@H](C)[C@@H](O[C@@H]2O[C@H](C)C[C@H](N(C)CC)[C@H]2O)[C@@]2(C)CC(C)=C(O2)[C@H](C)[C@@H](O)[C@H]1C have?
// result > 100 µg/mL

// query What value of MIC on Escherichia coli DC-2 does CC[C@H]1OC(=O)[C@H](C)[C@@H](O[C@H]2C[C@@](C)(OC)[C@@H](O)[C@H](C)O2)[C@H](C)[C@@H](O[C@@H]2O[C@H](C)C[C@H](N(C)C)[C@H]2O)[C@](C)(O)C[C@@H](C)C(=O)[C@H](C)[C@@H](O)[C@]1(C)O have?
// result 50 µg/mL

Continuing:
// query What value of MIC on Escherichia coli DC-2 does CC[C@H]1OC(=O)[C@H](C)[C@@H](O[C@H]2C[C@@](C)(OC)C[C@H](C)O2)[C@H](C)[C@@H](O[C@@H]2O[C@H](C)C[C@H](N(C)CC)[C@H]2O)[C@@]2(C)C[C@@H](C)C(O2)[C@H](C)[C@@H](O)[C@]1(C)O have?
// result > 100 µg/mL
